SUBJECT OF TEST: Cytochrome P450 3A4 (Homo sapiens)
Sequence (P08684 whole entry): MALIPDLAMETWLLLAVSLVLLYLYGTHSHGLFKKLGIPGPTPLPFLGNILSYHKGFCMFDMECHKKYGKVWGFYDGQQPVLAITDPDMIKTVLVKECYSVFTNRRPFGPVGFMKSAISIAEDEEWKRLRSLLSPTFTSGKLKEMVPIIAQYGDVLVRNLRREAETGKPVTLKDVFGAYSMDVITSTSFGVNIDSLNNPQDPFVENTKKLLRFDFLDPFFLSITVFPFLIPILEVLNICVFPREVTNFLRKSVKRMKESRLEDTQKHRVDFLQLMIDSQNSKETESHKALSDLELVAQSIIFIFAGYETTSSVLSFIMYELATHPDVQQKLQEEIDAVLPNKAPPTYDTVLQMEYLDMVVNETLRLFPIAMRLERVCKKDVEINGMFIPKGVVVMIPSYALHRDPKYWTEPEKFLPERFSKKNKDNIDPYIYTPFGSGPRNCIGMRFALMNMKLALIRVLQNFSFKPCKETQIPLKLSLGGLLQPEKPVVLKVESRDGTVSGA
PROCEDURE TEXT: Inhibition of CYP3A4 (unknown origin) using 7-benzyloxy-4-trifluoromethylcoumarin as substrate
Format: ADME
RESULT TYPE: IC50 (µM)

Consider the worked cases shown below.
- CHEM SMILES: "Fc1cc(OC(F)(F)C(F)F)cc([C@@](Cc2ccccc2)(Nc2nc3c(F)cc(F)cc3[nH]2)c2ccc(Cl)cn2)c1"
  SUBJECT OF TEST: "Cytochrome P450 3A4 (Homo sapiens)"
  IC50 [µM]: 24
- CHEM SMILES: "Fc1cc(OC(F)(F)C(F)F)cc([C@@](Cc2ccccc2)(Nc2nc3ccccc3[nH]2)c2ccc(Cl)cn2)c1"
  SUBJECT OF TEST: "Cytochrome P450 3A4 (Homo sapiens)"
  IC50 [µM]: 40
- CHEM SMILES: "Fc1cc(OC(F)(F)C(F)F)cc([C@@](Cc2ccccc2)(Nc2nc3cc(F)ccc3[nH]2)c2ccc(Cl)cn2)c1"
  SUBJECT OF TEST: "Cytochrome P450 3A4 (Homo sapiens)"
  IC50 [µM]: 32

I. Fc1cc(OC(F)(F)C(F)F)cc([C@@](Cc2ccccc2)(Nc2nc(C(F)(F)F)cs2)c2ccc(Cl)cn2)c1
II. O=C(NC1CCCC1)N[C@@](Cc1ccccc1)(c1cc(F)cc(OC(F)(F)C(F)F)c1)c1ccc(Cl)cn1
Ask | Would you kindly point out which of I and II has the smaller IC50 figure? Please respond with the label that marks your chosen entry.
Reply | II

====

SUBJECT OF TEST: Cytochrome P450 2D6 (Homo sapiens)
Sequence (P10635 whole entry): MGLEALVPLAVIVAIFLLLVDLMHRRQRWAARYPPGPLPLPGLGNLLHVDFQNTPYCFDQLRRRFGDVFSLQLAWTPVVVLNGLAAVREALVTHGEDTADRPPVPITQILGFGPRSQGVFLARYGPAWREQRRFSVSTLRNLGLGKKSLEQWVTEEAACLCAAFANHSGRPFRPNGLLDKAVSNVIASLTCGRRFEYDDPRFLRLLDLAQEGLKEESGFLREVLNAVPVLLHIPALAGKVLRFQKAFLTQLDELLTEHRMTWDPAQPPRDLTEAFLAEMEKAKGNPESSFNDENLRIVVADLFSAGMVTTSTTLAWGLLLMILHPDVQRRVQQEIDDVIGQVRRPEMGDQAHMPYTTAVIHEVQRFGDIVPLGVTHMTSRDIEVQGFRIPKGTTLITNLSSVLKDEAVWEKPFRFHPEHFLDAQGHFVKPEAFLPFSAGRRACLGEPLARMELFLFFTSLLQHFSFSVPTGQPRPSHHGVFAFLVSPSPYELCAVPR
pIC50: −log10 of the molar value.
RESULT TYPE: pIC50

a. O=C(NC1CCCC1)N[C@@](Cc1ccccc1)(c1cc(F)cc(OC(F)(F)C(F)F)c1)c1ccc(Cl)cn1
b. Fc1cc(OC(F)(F)C(F)F)cc([C@@](Cc2ccccc2)(Nc2nc3ccccc3[nH]2)c2ccc(Cl)cn2)c1
Ask | Which of the two items, a and b , has the greater recorded pIC50? Please respond with the label that marks your chosen entry.
Reply | a

====

SUBJECT OF TEST: Nuclear receptor subfamily 1 group I member 2 (Homo sapiens)
Sequence (O75469 whole entry): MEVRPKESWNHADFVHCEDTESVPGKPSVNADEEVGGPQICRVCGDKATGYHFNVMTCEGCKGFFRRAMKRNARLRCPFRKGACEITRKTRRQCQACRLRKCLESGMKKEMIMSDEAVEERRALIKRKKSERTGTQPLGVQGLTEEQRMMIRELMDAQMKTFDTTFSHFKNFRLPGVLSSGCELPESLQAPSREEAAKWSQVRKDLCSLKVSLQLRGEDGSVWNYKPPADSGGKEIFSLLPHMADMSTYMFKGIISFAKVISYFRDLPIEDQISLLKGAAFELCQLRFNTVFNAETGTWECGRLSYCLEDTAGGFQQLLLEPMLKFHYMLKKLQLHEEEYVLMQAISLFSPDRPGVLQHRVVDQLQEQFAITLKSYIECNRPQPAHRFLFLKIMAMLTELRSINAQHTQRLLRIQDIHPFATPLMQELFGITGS
PROCEDURE TEXT: Activation of PXR (unknown origin)
Let's look at some molecules and their measured EC60.

Consider the worked cases shown below.
- CHEM SMILES: "Fc1cc(OC(F)(F)C(F)F)cc([C@@](Cc2ccccc2)(Nc2nc3c(F)cc(F)cc3[nH]2)c2ccc(Cl)cn2)c1"
  EC60: "> 5.6 µM"
- CHEM SMILES: "Fc1cc(OC(F)(F)C(F)F)cc([C@@](Cc2ccccc2)(Nc2nc(C(F)(F)F)c(Br)s2)c2ccc(Cl)cn2)c1"
  EC60: "> 5.6 µM"
- CHEM SMILES: "O=C(NC1CCCC1)N[C@@](Cc1ccccc1)(c1cc(F)cc(OC(F)(F)C(F)F)c1)c1ccc(Cl)cn1"
  EC60: "0.7 µM"

Entry "Fc1cc(OC(F)(F)C(F)F)cc([C@@](Cc2ccccc2)(Nc2nc(C(F)(F)F)cs2)c2ccc(Cl)cn2)c1" — recorded EC60 = > 17 µM

Entry "Fc1cc(OC(F)(F)C(F)F)cc([C@@](Cc2ccccc2)(Nc2nc3cc(F)ccc3[nH]2)c2ccc(Cl)cn2)c1" — recorded EC60 = > 17 µM

Entry "Fc1cc(OC(F)(F)C(F)F)cc([C@@](Cc2ccccc2)(Nc2nc3ccccc3[nH]2)c2ccc(Cl)cn2)c1" — recorded EC60 = > 17 µM

Entry "Cc1sc(N[C@](Cc2ccccc2)(c2cc(F)cc(OC(F)(F)C(F)F)c2)c2ccc(Cl)cn2)nc1C(F)(F)F" — recorded EC60 = > 5.6 µM

====

PROCEDURE TEXT: Metabolic stability of the compound in human liver microsomes assessed as compound remaining after 10 mins
Format: ADME
CONDITION NOTES: read-out: Stability
RESULT TYPE: remaining at 10 min (%)

- CHEM SMILES: "Fc1cc(C(F)(F)F)cc([C@@](Cc2ccccc2)(Nc2nc3c(s2)CCC3)c2ccc(Cl)cn2)c1"
  READOUT UNITS: "%"
  remaining at 10 min: 73

a. Fc1cc(OC(F)(F)C(F)F)cc([C@@](Cc2ccccc2)(Nc2nc3c(F)cc(F)cc3[nH]2)c2ccc(Cl)cn2)c1
b. Fc1cc(OC(F)(F)C(F)F)cc([C@@](Cc2ccccc2)(Nc2nc(C(F)(F)F)c(Br)s2)c2ccc(Cl)cn2)c1
Ask | Would you kindly point out which of a and b has the smaller remaining at 10 min figure? Please respond with the label that marks your chosen entry.
Reply | a

====

SUBJECT OF TEST: Cholesteryl ester transfer protein (Homo sapiens, UniProt P11597)
Sequence (P11597 whole entry): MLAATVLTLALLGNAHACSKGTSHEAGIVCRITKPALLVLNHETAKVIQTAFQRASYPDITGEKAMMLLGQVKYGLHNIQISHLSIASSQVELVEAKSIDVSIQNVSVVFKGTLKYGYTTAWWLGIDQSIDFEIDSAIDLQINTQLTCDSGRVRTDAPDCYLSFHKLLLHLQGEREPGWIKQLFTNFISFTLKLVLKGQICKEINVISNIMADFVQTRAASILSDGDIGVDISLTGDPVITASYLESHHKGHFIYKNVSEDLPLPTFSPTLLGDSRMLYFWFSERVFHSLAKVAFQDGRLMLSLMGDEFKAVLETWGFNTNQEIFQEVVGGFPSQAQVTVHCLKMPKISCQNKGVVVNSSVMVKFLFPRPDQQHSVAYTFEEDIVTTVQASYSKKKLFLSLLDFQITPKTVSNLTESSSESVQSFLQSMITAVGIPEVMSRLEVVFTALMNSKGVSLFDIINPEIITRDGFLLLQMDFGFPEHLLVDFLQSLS
PROCEDURE TEXT: Inhibition of human recombinant CETP using [3H]-CE/HDL by scintillation proximity assay
RESULT TYPE: IC50 (nM)

Consider the worked cases shown below.
- MOLECULE: "Fc1cc(OC(F)(F)C(F)F)cc([C@@](Cc2ccccc2)(Nc2nc(C(F)(F)F)c(Br)s2)c2ccc(Cl)cn2)c1"
  RESULT: 40
- MOLECULE: "Cc1sc(N[C@](Cc2ccccc2)(c2cc(F)cc(OC(F)(F)C(F)F)c2)c2ccc(Cl)cn2)nc1C(F)(F)F"
  RESULT: 20
- MOLECULE: "Cc1nc(N[C@](Cc2ccccc2)(c2cc(F)cc(OC(F)(F)C(F)F)c2)c2ccc(Cl)cn2)sc1C"
  RESULT: 40
- MOLECULE: "Fc1cc(C(F)(F)F)cc(C(Cc2ccccc2)(Nc2nc3c(s2)CCCC3)c2ccc(Cl)cn2)c1 (racemic)"
  RESULT: 200
- MOLECULE: "Cc1cnc(NC(Cc2ccccc2)(c2cc(F)cc(C(F)(F)F)c2)c2ccc(Cl)cn2)s1 (stereo not drawn)"
  RESULT: 1100
- MOLECULE: "CCc1csc(NC(Cc2ccccc2)(c2cc(F)cc(C(F)(F)F)c2)c2ccc(Cl)cn2)n1 (stereo not drawn)"
  RESULT: 700

P. Fc1cc(OC(F)(F)C(F)F)cc([C@@](Cc2ccccc2)(Nc2nc3ccccc3[nH]2)c2ccc(Cl)cn2)c1
Q. Fc1cc(C(F)(F)F)cc([C@@](Cc2ccccc2)(Nc2nc3c(s2)CCC3)c2ccc(Cl)cn2)c1
R. Cn1nnc(NC(Cc2ccccc2)(c2cc(F)cc(C(F)(F)F)c2)c2ccc(Cl)cn2)n1 (stereo not drawn)
S. Fc1cc(C(F)(F)F)cc(C(Cc2ccccc2)(Nc2nc3ccccc3s2)c2ccc(Cl)cn2)c1 (stereo not drawn)
T. COC(=O)c1sc(NC(Cc2ccccc2)(c2cc(F)cc(C(F)(F)F)c2)c2ccc(Cl)cn2)nc1C (stereo not drawn)
Ask | In this exercise, place the 5 molecules in ascending sequence of their recorded IC50. Could you list the labels in the order requested?
Reply | Q, P, S, R, T
(Q: 40 nM, P: 90 nM, S: 500 nM, R: 11000 nM, T: 32000 nM)

====

SUBJECT OF TEST: Cholesteryl ester transfer protein (Homo sapiens)
PROCEDURE TEXT: Inhibition of human recombinant CETP using [3H]-CE/HDL by scintillation proximity assay
RESULT TYPE: IC50 (µM)

Consider the worked cases shown below.
- COMPOUND: "Fc1cc(C(F)(F)F)cc([C@](Cc2ccccc2)(Nc2nc3c(s2)CCCC3)c2ccc(Cl)cn2)c1"
  RESULT TYPE: "IC50"
  READOUT UNITS: "µM"
  RESULT: 10.8
- COMPOUND: "Fc1cc(OC(F)(F)C(F)F)cc([C@@](Cc2ccccc2)(Nc2nc3c(F)cc(F)cc3[nH]2)c2ccc(Cl)cn2)c1"
  RESULT TYPE: "IC50"
  READOUT UNITS: "µM"
  RESULT: 0.04

I. Fc1cc(C(F)(F)F)cc(C(Cc2ccccc2)(Nc2nc(C(F)(F)F)c(Br)s2)c2ccc(Cl)cn2)c1 (configuration not stated)
II. Fc1cc(C(F)(F)F)cc(C(Cc2ccccc2)(Nc2ncc(-c3ccccc3)o2)c2ccc(Cl)cn2)c1 (configuration not stated)
III. Fc1cc(OC(F)(F)C(F)F)cc([C@@](Cc2ccccc2)(Nc2nc3cc(F)ccc3[nH]2)c2ccc(Cl)cn2)c1
IV. CC(C)(C)c1csc(NC(Cc2ccccc2)(c2cc(F)cc(C(F)(F)F)c2)c2ccc(Cl)cn2)n1 (configuration not stated)
Ask | Descending sort on IC50 required. Could you list the labels in the order requested?
Reply | II, IV, I, III
(II: 12 µM, IV: 7.5 µM, I: 0.1 µM, III: 0.05 µM)
